# test_protocol: Hepatic microsome stability assay, HLM
# Type: in vitro ADME, human
# assay_context: human, liver microsomes, pH 7.4; 1 μmol/L, 0.2 g/L microsomes, NADPH
measured_quantity: half-life at 1 μmol/L

Would you mind telling me what half-life at 1 μmol/L value was observed for CNCC[C@H](Oc1cccc2c1OCO2)c1cccs1 ?
4.16 h

* * *

# test_protocol: PK studies in beagle dogs
# Format: in vivo
# assay_context: male, beagle, dog, plasma, po, 5 mg/kg, beagle dogs, 5 mg/kg oral, fed (nonfasting); read-out: MRT(0-t)
measured_quantity: MRT last (h)
Use h as the unit, but write only the number.

Would you mind telling me what MRT last value was observed for CNCC[C@H](Oc1cccc2c1OCO2)c1cccs1 ?
4.14
